Ref: the RNAGym collection of RNA variant scans (doi:10.7554/elife.80360)

Give self-cleavage for every item shown.
B1: CPEB3 Ribozyme (parent)
chain: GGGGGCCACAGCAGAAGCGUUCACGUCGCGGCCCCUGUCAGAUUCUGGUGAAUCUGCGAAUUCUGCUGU

Variants of: B1
method: self-cleavage, relative activity (ratio to wild type); higher = more cleavage; co-transcriptional
Give your answer as a number; write no unit.

So, C29G C32U ? Its self-cleavage was 0.313

So, A10G G25U ? Its self-cleavage was 0.132

So, G30U C45U ? Its self-cleavage was 0.329

So, G30U G47C ? Its self-cleavage was 0.395

So, U20A U38C ? Its self-cleavage was 0.107
